Reported LD50 is given for each of the following compounds.
- ASSAY DETAILS: acute toxicity, LD50 (Litchfield and Wilcoxon) on mice
- Assay type: in vivo
- REPORTED CONDITIONS: mouse, in vivo, iv, mice
RECORDED ENDPOINT: LD50 (mg/kg)

COMPOUND: CC[C@H]1CN2CCc3c([nH]c4ccccc34)[C@@H]2C[C@@H]1C(COC)C(=O)OC (stereo partly drawn) [THCN, tetrahydrocorynantheine]
RECORDED ENDPOINT: LD50
DISPLAY UNIT: mg/kg
READING: 14.1
--
COMPOUND: CC[C@H]1CN2CCc3c([nH]c4ccccc34)[C@@H]2C[C@@H]1/C(=C\OC)C(=O)OC [DHCN, dihydrocorynantheine]
RECORDED ENDPOINT: LD50
DISPLAY UNIT: mg/kg
READING: 13
--
COMPOUND: COC(=O)C1=CO[C@@H](C)[C@H]2CN3CCc4c([nH]c5ccccc45)[C@@H]3C[C@H]12 [ajmalicine, reference compound]
RECORDED ENDPOINT: LD50
DISPLAY UNIT: mg/kg
READING: 14
